system: Staphylococcus aureus; assay: Antibacterial activity against Staphylococcus aureus RN4220 by microbroth dilution method; assay type: functional
readout-kind: MIC

>>> observed("O=C(Cc1ccccc1Cl)N1CCC(c2ccccn2)C1 (racemic)")
"100 µg/mL"
>>> observed("O=C(Cc1ccccc1F)N1CCC(c2ccccc2)C1 (racemic)")
"50 µg/mL"
>>> observed("COc1ccccc1C1CCN(C(=O)Cc2ccccc2F)C1 (racemic)")
"50 µg/mL"
>>> observed("O=C(Cc1c(F)cccc1Cl)N1CCC(c2ccc3c(c2)OCO3)C1 (racemic)")
"25 µg/mL"
>>> observed("O=C(Cc1c(F)cccc1F)N1CCC(c2ccccc2)C1 (racemic)")
"50 µg/mL"
>>> observed("COc1ccc(C2CCN(C(=O)Cc3ccccc3Cl)C2)cc1 (racemic)")
"> 200 µg/mL"
>>> observed("COc1ccccc1C1CCN(C(=O)Cc2cccc(F)c2F)C1 (racemic)")
"100 µg/mL"
>>> observed("O=C(Cc1cccc(F)c1F)N1CCC(c2ccc3c(c2)OCO3)C1 (racemic)")
"> 200 µg/mL"

Please give MIC for each item listed below.
1. CC(=O)Nc1ccc(/C=C/C(=O)N2CCC(c3nccs3)C2)cn1 (racemic)
2. CC(=O)Nc1ccc(/C=C/C(=O)N2CCC(c3ccccc3)C2)cn1 (racemic)
3. CC(=O)Nc1ccc(/C=C/C(=O)N2CCC(c3ccccn3)C2)cn1 (racemic)
4. O=C(Cc1cccc(F)c1F)N1CCC(c2ccccc2)C1 (racemic)

result:
1. > 200 µg/mL
2. > 200 µg/mL
3. > 200 µg/mL
4. 50 µg/mL

Every entry's value here was drawn from ChEMBL document CHEMBL4177701.
